- target_or_test_system: human mAChR M4 (Homo sapiens, UniProt P08173)
- Construct: expressed in transfected cells
- Sequence (P08173 whole entry): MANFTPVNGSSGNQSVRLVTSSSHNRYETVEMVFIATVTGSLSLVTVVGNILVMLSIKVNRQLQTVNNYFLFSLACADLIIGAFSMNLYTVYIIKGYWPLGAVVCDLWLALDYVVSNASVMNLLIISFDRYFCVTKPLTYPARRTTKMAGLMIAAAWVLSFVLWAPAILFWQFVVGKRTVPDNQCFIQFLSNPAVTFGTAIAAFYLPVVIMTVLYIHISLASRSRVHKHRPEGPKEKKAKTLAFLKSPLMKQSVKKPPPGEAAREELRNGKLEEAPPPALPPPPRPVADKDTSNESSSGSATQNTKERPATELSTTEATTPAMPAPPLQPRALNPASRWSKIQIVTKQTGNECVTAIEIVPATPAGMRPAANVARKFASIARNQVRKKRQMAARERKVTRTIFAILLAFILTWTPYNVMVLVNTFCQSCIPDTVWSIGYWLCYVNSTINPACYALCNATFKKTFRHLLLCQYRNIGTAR
- measurement_protocol: mAChR M4 cell-based functional assay (calcium mobilization, CHO-K1 hM4-Gqi5 cells)
- condition_parameters: CHO-K1
So basically: is Emax under 70%? Then y. Not under? Then n.

Cc1cc(C#N)cnc1N1CCc2ncc(C(F)F)cc2C1 [Example 307]
n
Cc1cnc2c(c1)CN(c1nnc(C#N)c(C)c1C)CC2 [compound 117]
y
Cc1nc(Cl)nc(N2CCc3ncc(C4CC4)cc3C2)c1C [compound 254]
n
CNC(=O)c1cnc(N2CCc3ncccc3C2)c(C)c1 [compound 57]
y
Cc1cnc2c(c1)CN(c1nnc(C#N)cc1C)CC2 [Example 305]
n

Query: Hello, I'm reviewing records and need to know if Emax of Cc1c(C#N)nnc(N2CCc3ncc(-c4ccn(CC5CC5)n4)cc3C2)c1C [Example 10] is below 70%. Could you check?
Reply: y

Query: Subsequent entry: Cc1cc(C#N)cnc1N1CCc2nc(C)c(N3CCOC(C)(C)C3)cc2C1 [Example 377]
Reply: n

Query: Subsequent entry: Cc1cc(C#N)cnc1N1CCc2ncc(Br)cc2C1 [Example 594]
Reply: n

Query: Subsequent entry: COCc1nc(Cl)c(C)c(N2CCc3ncc(Br)cc3C2)n1 [compound 211]
Reply: n

----------
- target_or_test_system: human mAChR M4 (Homo sapiens)
- Construct: expressed in transfected cells
- measurement_protocol: mAChR M4 cell-based functional assay (calcium mobilization, CHO-K1 hM4-Gqi5 cells)
- condition_parameters: positive allosteric modulator activity, increase in the EC20 acetylcholine response, CHO-K1 hM4-Gqi5 cells; read-out: Human M4 EC50
property_label: pEC50
Scale note: pEC50 = -log10(concentration in M).

Field: example entries. Status: answers known.
Cc1nc(N2CCOCC2)nc(N2CCc3ncc(Nc4ccnn4C)cc3C2)c1C
6.42
Cc1cc(C#N)cnc1N1Cc2cc(C(F)(F)F)cnc2CC1C (stereo not drawn)
6.52
Cc1cnc2c(c1)CN(c1nnc(C#N)cc1C)CC2
6.27

Next:
Query: Quick one: pEC50 for `Cc1cc(C#N)cnc1N1CCc2ncc(Nc3cccnc3F)cc2C1` ?
Reply: 7.35

----------
- target_or_test_system: human mAChR M4 (Homo sapiens)
- Construct: expressed in transfected cells
- measurement_protocol: mAChR M4 cell-based functional assay (calcium mobilization, CHO-K1 hM4-Gqi5 cells)
- condition_parameters: CHO-K1, % ACh maximum at 30 μM; human M4
Reported Emax at 30 µM values for a set of molecules
Report as a plain number; the unit % is understood.

Query: Quick one: Emax at 30 µM for `Cc1nn(C)c(C)c1-c1cnc2c(c1)CN(c1nnc(C#N)c(C)c1C)CC2` ?
Reply: 101

Query: Subsequent entry: `Cc1cnccc1CNC(=O)c1cnc(N2CCc3ncc(C(F)(F)F)cc3C2)c(C)c1`
Reply: 100

----------
Reported EC50 values for a set of compounds
- target_or_test_system: human mAChR M4 (Homo sapiens, UniProt P08173)
- Construct: expressed in transfected cells
- measurement_protocol: mAChR M4 cell-based functional assay (calcium mobilization, CHO-K1 hM4-Gqi5 cells)
- condition_parameters: positive allosteric modulator activity, increase in the EC20 acetylcholine response, CHO-K1 hM4-Gqi5 cells; read-out: Human M4 EC50
Report as a plain number; the unit nM is understood.

Field: example entries. Status: answers known.
Cc1cc(C(=O)N2CC3(COC3)C2)nnc1N1CCc2ncc(N3CCO[C@H](C)C3)cc2C1 [Example 575]
88
Cc1cc(C(=O)NCc2nc3ccccc3s2)cnc1N1CCc2ncccc2C1 [compound 125]
856
Cc1nc(C)c(C)c(N2CCc3ncc(-c4ccc(N5CCC(F)(F)C5)nc4)cc3C2)n1 [compound 228]
890

Next:
Query: Lab note: need EC50 for Cc1c(C#N)nnc(N2CCc3ncc(-c4ccn(CC5CC5)n4)cc3C2)c1C [Example 10] on human mAChR M4 (Homo sapiens, UniProt P08173), anyone have it?
Reply: 240
